Taken from ChEMBL document CHEMBL1124819.

Heads up, these compounds all have pKi values measured for 5-hydroxytryptamine receptor 1A (Rattus norvegicus).
pKi: −log10 of the molar value.
readoutLabel: pKi

compound="O=C1CC2(CCCC2)CC(=O)N1CCCCN1CCc2c(Cl)ccc3c2C(CCC3)C1 (stereo not drawn)" readoutlabel=pKi observed=8.10
compound=CN1CCc2c(Cl)ccc3c2[C@H](CCC3)C1 readoutlabel=pKi observed=8.20
compound="CCN1CCc2c(Cl)ccc3c2C(CCC3)C1 (stereo not drawn)" readoutlabel=pKi observed=7.80
compound="CCCN1CCc2c(Cl)ccc3c2C(CCC3)C1 (stereo not drawn)" readoutlabel=pKi observed=7.50
compound=O=C1CC2(CCCC2)CC(=O)N1CCCCN1CCc2cccc(Cl)c2CC1 readoutlabel=pKi observed=8.30
compound="Cl.c1cc2c3c(c1)CCNCC3CCC2 (stereo not drawn)" readoutlabel=pKi observed=6.70
compound="CN1CCc2c(O)ccc3c2C(CCC3)C1.Cl (stereo not drawn)" readoutlabel=pKi observed=6.50
compound="CN1CCc2ccc(Cl)c3c2C(CCC3)C1 (stereo not drawn)" readoutlabel=pKi observed=7.10
compound=CN1CCc2ccc(Cl)c3c2[C@@H](CCC3)C1 readoutlabel=pKi observed=6.90
compound="COc1ccc2c3c1CCN(C)C3CCC2 (stereo not drawn)" readoutlabel=pKi observed=5.50
compound=CN1CCc2ccc(Cl)c3c2[C@H](CCC3)C1 readoutlabel=pKi observed=7.30
compound="Cl.c1ccc(CCN2CCc3cccc4c3C(CCC4)C2)cc1 (stereo not drawn)" readoutlabel=pKi observed=6.10
compound="Br.CN1CCc2c(Cl)ccc3c2C(CC3)C1 (stereo not drawn)" readoutlabel=pKi observed=7.60
